Target: T1, Cynomolgus Monkey CCR8 (cynomolgus monkey, UniProt O97665 1-356 (rhesus entry))
T1 construct: also called cyno CCR8; cynoCCR8
T1 sequence (O97665 other isoform, or with tags, fused parts or gaps): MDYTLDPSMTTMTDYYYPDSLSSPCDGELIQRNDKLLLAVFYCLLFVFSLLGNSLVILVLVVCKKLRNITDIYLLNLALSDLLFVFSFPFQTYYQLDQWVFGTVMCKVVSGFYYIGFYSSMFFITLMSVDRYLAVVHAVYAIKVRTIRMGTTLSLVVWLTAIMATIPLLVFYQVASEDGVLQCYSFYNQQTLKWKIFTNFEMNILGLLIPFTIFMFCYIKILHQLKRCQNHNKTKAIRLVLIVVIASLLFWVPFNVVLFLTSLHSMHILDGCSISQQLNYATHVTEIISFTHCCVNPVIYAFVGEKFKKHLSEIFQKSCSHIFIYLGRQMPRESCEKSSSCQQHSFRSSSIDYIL
Test: flow cytometry, 293T-cynoCCR8 cells
READOUT_KIND: Emax (RLU)
The reply should be a number in RLU, with the unit left off.

Problem: Note Emax for the binder shown: hu305-4F-2l-AF (antibody, V domains shown, also called hu305-4F-21-AF; hu305-4F-21) VH: QVQLQESGPGLVKPSQTLSLTCTVSGFSLAVYGVHWVRQPPGKGLEWLGVIWRGGTTDYNPSLKSRLTFSKDSSKSQVSLKLSSVTAADTAVYYCAKNRVTTVVAPNFYAMDYWGQGTLVTVSS VL: DIVMTQSPDSLAVSLGERVTMNCKSSQSLLYSGNQKNYLAWYQQKPGQSPKLLIYWASTRKSGVPDRFSGSGSGTDFTLTISSLQAEDVAAYYCQQYYTYPLTFGQGTRLEIK
Solution: 12500

Problem: Note Emax for the binder shown: hu305-5P-3a-AF (antibody, V domains shown) VH: QVQLKQSGPGLVKPSETLSLTCTVSGFSLTSYGVHWVRQPPGKGLEWLGVIWRGGTTDYNPSLKSRVTFSKDSSKNQVSLKLSSVTAADTAVYYCAKNRVTTVVAPNFYAMDYWGQGTLVTVSS VL: DIVMTQSPDSLAVSLGERATINCKSSQSLLYSGNQKNYLAWYQQKPGQPPKLLIYWASTRKSGVPDRFSGSGSGTDFTLTISSLKAEDVAVYYCQQYYTYPLTFGQGTRLEIK
Solution: 12600

Problem: Note Emax for the binder shown: Ch305-AF (antibody, V domains shown, human IgG1/kappa; also called afucosylated Ch305) VH: QVQMKQSGPSLVQPSQSLSITCTVSGFSLTSYGVHWVRQSPGKGLEWLGVIWRGGTTDYNAAFMSRLSFTKDSSKSQVFFKLNSLQADDTAIYYCAKNRVTTVVAPNFYAMDYWGQGTSVTVSS VL: DIVMTQSPSSLAVSVGEKVTMSCKSSQSLLYSGNQKNYLAWYQQKPGQSPKLLIYWASTRKSGVPDRLTGSGSGTDFTLTISSVKAEDLAAYYCQQYYTYPLTFGAGTRLEIK
Solution: 11900

Problem: Note Emax for the binder shown: hu305-5W-3a-AF (antibody, V domains shown, also called afucosylated hu305-5W-3a) VH: QVQLKQSGPGLVKPSETLSLTCTVSGFSLAVYGVHWVRQPPGKGLEWLGVIWRGGTTDYNPSLKSRLTFSKDSSKSQVSLKLSSVTAADTAVYYCAKNRVTTVVAPNFYAMDYWGQGTLVTVSS VL: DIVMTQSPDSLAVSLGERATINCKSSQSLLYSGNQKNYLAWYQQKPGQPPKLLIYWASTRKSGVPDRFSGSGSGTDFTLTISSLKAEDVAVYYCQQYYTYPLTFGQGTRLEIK
Solution: 12400

Problem: Note Emax for the binder shown: hu305-4F-2m-AF (antibody, V domains shown) VH: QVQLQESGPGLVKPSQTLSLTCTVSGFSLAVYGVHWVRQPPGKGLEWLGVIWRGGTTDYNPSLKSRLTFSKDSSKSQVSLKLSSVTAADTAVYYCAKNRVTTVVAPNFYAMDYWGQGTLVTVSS VL: DIVMTQSPDSLAVSLGERVTINCKSSQSLLYSGNQKNYLAWYQQKPGQSPKLLIYWASTRKSGVPDRFSGSGSGTDFTLTISSLQAEDVAAYYCQQYYTYPLTFGQGTRLEIK
Solution: 12300
